# EXPERIMENTAL SYSTEM: REV7^Y63A (human, UniProt Q9UI95 1-211, Y63A)
# Sequence (Q9UI95 whole entry Y63A): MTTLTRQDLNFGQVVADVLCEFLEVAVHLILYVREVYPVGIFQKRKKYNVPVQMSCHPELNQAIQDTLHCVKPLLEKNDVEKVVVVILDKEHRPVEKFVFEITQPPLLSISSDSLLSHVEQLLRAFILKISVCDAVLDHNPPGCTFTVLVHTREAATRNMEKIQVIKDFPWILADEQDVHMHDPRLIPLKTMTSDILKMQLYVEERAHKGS
# METHOD DESCRIPTION: ITC
READOUT LABEL: pKd
Give bare numbers, as −log10 of the molar value.

Request: What measured pKd goes with SHLD3(1–82) with C-terminal His6-tag (domain or fragment) MTTEVILHYRPCESDPTQLPKIAEKAIQDFPTRPLSRFIPWFPYDGSKLPLRPKRSPPVISEEAAEDVKQYLTISEHDAKSH ?
Result: 6.80
